Tested on: 171881-019-R-J1-PDC complex spheroid viability;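 further: spheroids exposed to agents for 7 days after 3 days growth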
Experiment: Anticancer human tumor 171881-019-R-J1-PDC patient-derived invasive breast carcinoma cell line growth inhibition
Details: second compound 10 µM; first compound 0.01 µM; hits give low values
From the text: Multicellular complex tumor spheroid response to LSD1 Inhibitor Iadademstat in combination with a variety of drugs and investigational agents in selected tumor cell lines The current study was undertaken to assess response to LSD1 inhibitors in combination with standard-of-care drugs and investigational agents in solid tumor complex spheroid models as well as in the K-562 leukemia. […] Compounds. […] If the clinical Cmax for an agent had not been determined, the highest concentration tested was 10 microM. […]
Quantity name: viability, T/C

Cn1ncnc1C1c2n[nH]c(=O)c3cc(F)cc(c23)NC1c1ccc(F)cc1 (centres undefined) + NC1CC1c1ccc(-c2cccc(O)c2)cc1	83%
CC(C)CC(NC(=O)C(Cc1ccccc1)NC(=O)c1cnccn1)B(O)O (centres undefined) + NC1CCC(NC2CC2c2ccccc2)CC1	0.23%
Cn1ncnc1C1c2n[nH]c(=O)c3cc(F)cc(c23)NC1c1ccc(F)cc1 (centres undefined) + NC1CCC(NC2CC2c2ccccc2)CC1	76.3%

Then there is this compound:
viability, T/C for CC[C@@]1(O)C(=O)OCc2c1cc1n(c2=O)Cc2cc3c(CN(C)C)c(O)ccc3nc2-1 + NC1CCC(NC2CC2c2ccccc2)CC1 ?
92.7%

Data provenance is PubChem BioAssay AID1918932.
